Data origin: patent US11091786B2

Entries and their measured half-life at 100 μM follow.
System: butelase 1
Assay: Degradation time course of peptide in the presence of butelase 1 (HPLC)
Type: biochemical
Conditions: Clitoria ternatea, butelase 1 in reaction buffer, presence of 0.0005 molar equivalent of butelase 1 (50 nM), peptide 100 μM, 42° C.
Numbered stars: 1 amine (or outer) side, 2 acyl side, 3 side chain; on linkers, the order of the positions; unused ones are H or OH. Square brackets hold non-standard residues; d marks the D form. Peptide text beside a SMILES is read from it. X1 = O=C(CO[*:1])[*:2]

Compound	half-life at 100 μM / min
CC(C)[C@H](NC(=O)CSC(=O)[C@H](CC(N)=O)NC(=O)[C@H](CCCCN)NC(=O)[C@@H](N)Cc1ccc(O)cc1)C(N)=O [Peptide 1, YKN(S)GV]	40
CC(C)[C@H](NC(=O)COC(=O)[C@H](CC(N)=O)NC(=O)[C@H](CCCCN)NC(=O)[C@@H](N)Cc1ccc(O)cc1)C(N)=O [Peptide 2, YKN(O)GV] (H-YKN[X1]V-NH2; N-terminus assumed)	37
